# Test system: T1, human DLL3 (human, UniProt Q9NYJ7 27-492, limits assumed)
# T1 construct: also called hDLL3; DLL3 protein
# T1 sequence: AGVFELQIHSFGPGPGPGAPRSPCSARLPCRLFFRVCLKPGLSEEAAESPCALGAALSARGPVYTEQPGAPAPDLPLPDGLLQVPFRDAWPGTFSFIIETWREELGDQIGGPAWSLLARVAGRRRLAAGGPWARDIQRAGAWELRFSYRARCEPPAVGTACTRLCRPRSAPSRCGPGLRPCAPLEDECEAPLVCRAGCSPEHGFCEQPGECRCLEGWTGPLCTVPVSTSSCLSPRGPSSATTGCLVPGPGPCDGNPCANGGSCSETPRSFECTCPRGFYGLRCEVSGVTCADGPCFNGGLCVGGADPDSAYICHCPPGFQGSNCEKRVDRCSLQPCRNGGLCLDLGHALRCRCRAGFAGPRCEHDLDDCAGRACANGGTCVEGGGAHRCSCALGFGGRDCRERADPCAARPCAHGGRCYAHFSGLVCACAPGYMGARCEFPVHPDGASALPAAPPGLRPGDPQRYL
# Assay info: screen on immobilized hDLL3 or h293-hDLL3 cells
Metric name: binding result

>>> measurement("SC16.129 (antibody, V domains shown, murine mAb) VH: QVQLKESGPGLVAPSQSLSITCTVSGFSLTDYGVSWIRQPPGKGLEWLGVIWGGGSTYYNSALKSRLSISKDNSKSQVFLELNSLQTDDTAIYYCAKHYGHYAAYWGQGTLVTVSA VL: DIQMTQSPASQSASLGESVTITCLASQTIGTWLAWYQQKPGKSPQLLIYAATSLADGVPSRFSGSGSGTKFSFKISSLQAEDFVSYYCQQLYSTPYTFGGGTKLEIK")
"binds"
>>> measurement("SC16.42 (antibody, V domains shown, murine mAb) VH: QIQLVQSGPELKKPGETVKISCKASGYTFTTAGMQWVQKMPGKGFKWIGWINTHSGEPKYADDFKGRFAFSLETSASTAYLQISNLKDEDTATFFCAPLWSDSSFAYWGQGTLVTVSA VL: DVLMTQSPLSLSVSLGDQASISCRSSQNIVHSDRYTYLEWYLQKPGQSPKLLIYGVSNRFSGVPDRFSGSGSGTDFTLKISRVEAEDMGVYYCFQGTHVPYTFGGGTKLEIK")
"binds"
>>> measurement("SC16.45 (antibody, V domains shown, murine mAb) VH: QVQLQQSGADLVRPGTSVKVSCKASGYSFTNYLIEWVKQRPGQGLEWIGVINPGSGGTHYNEKFKDKAVLTADKSSTTAHMQLSSLTSDDSAVYFCARSPYDYNDGAMDYWGQGTSVTVSS VL: EIQMTQSPSSMSASLGDRITITCQATQDIVKNLNWYQQKPGKPPSFLIYYATELAEGVPARFSGSGSGSDYSLTISNLESEDFADYHCLQFYEFPFTFGAGTKLELK")
"binds"
